Target: human glucagon receptor (human, UniProt P47871 26-477)
Sequence (P47871 26-477): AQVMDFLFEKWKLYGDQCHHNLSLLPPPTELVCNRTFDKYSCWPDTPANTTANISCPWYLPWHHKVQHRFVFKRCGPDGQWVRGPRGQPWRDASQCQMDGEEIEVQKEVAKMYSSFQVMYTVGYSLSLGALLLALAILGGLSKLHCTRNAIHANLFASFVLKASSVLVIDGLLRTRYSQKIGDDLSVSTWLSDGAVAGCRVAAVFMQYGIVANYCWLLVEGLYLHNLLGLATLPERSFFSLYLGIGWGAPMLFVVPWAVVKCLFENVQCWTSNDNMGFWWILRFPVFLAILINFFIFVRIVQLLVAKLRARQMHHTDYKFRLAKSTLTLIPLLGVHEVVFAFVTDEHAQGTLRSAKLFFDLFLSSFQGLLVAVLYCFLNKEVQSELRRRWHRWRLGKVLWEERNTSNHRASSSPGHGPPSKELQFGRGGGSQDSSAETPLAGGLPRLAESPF
Assay: cell-based or functional assay
Non-standard residues stand in square brackets, D forms with d. No end group written: not given here. Aib = CC(C)(N)C(=O)O
Property name: In vitro Activity (Relative Activity of SEQ ID NO: 1, %), from cAMP EC50

>>> measured_value("Y[Aib]QGTFTSDYSKYLDSCDADDFVVWLINT [glucagon derivative of SEQ ID NO: 10]")
"< 0.1%"
>>> measured_value("Y[Aib]QGTFTSDYSKYLDCRRAQVFVQWLMRT [glucagon derivative of SEQ ID NO: 16]")
"4.2%"
>>> measured_value("Y[Aib]QGTFTSDYSKYLDSCDAQDFVQWLINT [glucagon derivative of SEQ ID NO: 8]")
"< 0.1%"
